Entry source: patent US20120197004A1

Experiment: Metabolic stability, dog liver microsomes
Details: dog, microsomes, pH 7.4
quantityKind: remaining at 0.5 h, 1 μM (%)
Numbers only, in %.

// remaining at 0.5 h, 1 μM lookup, compound = C[C@]12CC[C@H]3[C@@H](CCC4=CC(=O)CC[C@@]43C)[C@@H]1CC[C@@H]2O [Testosterone, testosterone, reference compound] , result: 62

----------
System: Salmonella typhimurium (ATCC 13311)
Conditions: ATCC 13311
Where a SMILES comes first, the peptide text is derived from it. [ ]: non-standard residue; d: D form. ξ: configuration not given here. Oic = O=C(O)[C@@H]1C[C@@H]2CCCC[C@@H]2N1; ξTic = O=C(O)C1Cc2ccccc2CN1; ξOic = O=C(O)C1CC2CCCCC2N1
quantityKind: MIC Salmonella typhimurium (µM)
Give bare numbers, in µM.

Some solved cases for reference:
CC(=O)NCC(=O)N[C@@H](Cc1ccccc1)C(=O)N1[C@H](C(=O)NCC(=O)N[C@@H](CCCCN)C(=O)N2[C@H](C(=O)NCC(=O)N[C@@H](Cc3ccccc3)C(=O)N3[C@H](C(=O)NCC(=O)N[C@@H](CCCCN)C(=O)N[C@@H](CCCCN)C(=O)N[C@@H](CCCCN)C(=O)N[C@@H](CCCCN)C(=O)N[C@@H](CCCCN)C(N)=O)C[C@@H]4CCCC[C@@H]43)C[C@@H]3CCCC[C@@H]32)C[C@@H]2CCCC[C@@H]21 [FKAB-1Gf, Ac-GF-Oic-GK-Oic-GF-Oic-GKKKKK-CONH2] (Ac-GF[Oic]GK[Oic]GF[Oic]GKKKKK-NH2): 100
CC(=O)NCC(=O)N[C@@H](Cc1ccccc1)C(=O)N1Cc2ccccc2CC1C(=O)NCC(=O)N[C@@H](CCCCN)C(=O)N1Cc2ccccc2CC1C(=O)NCC(=O)N[C@@H](Cc1ccccc1)C(=O)N1Cc2ccccc2CC1C(=O)NCC(=O)N[C@@H](CCCCN)C(=O)N1Cc2ccccc2CC1C(=O)N[C@@H](CCCCN)C(=O)N[C@@H](CCCCN)C(=O)N[C@@H](CCCCN)C(=O)N[C@@H](CCCCN)C(N)=O (stereo partly shown) [FKAB-1Gg] (Ac-GF[ξTic]GK[ξTic]GF[ξTic]GK[ξTic]KKKK-NH2): 100
CC(=O)NCC(=O)N[C@@H](Cc1ccccc1)C(=O)N1Cc2ccccc2CC1C(=O)NCC(=O)NCC(=O)N[C@@H](CCCCN)C(=O)N1Cc2ccccc2CC1C(=O)NCC(=O)NCC(=O)N[C@@H](Cc1ccccc1)C(=O)N1Cc2ccccc2CC1C(=O)NCC(=O)NCC(=O)N[C@@H](CCCCN)C(=O)N1Cc2ccccc2CC1C(=O)N[C@@H](CCCCN)C(=O)N[C@@H](CCCCN)C(=O)N[C@@H](CCCCN)C(=O)N[C@@H](CCCCN)C(N)=O (stereo partly shown) [FKAB-1Gg1] (Ac-GF[ξTic]GGK[ξTic]GGF[ξTic]GGK[ξTic]KKKK-NH2): 100

Would you kindly look at the next entry?
Data point: CC(=O)NCC(=O)N1Cc2ccccc2CC1C(=O)N1C(C(=O)N[C@@H](CCCCN)C(=O)N2Cc3ccccc3CC2C(=O)N2C(C(=O)NCC(=O)N3Cc4ccccc4CC3C(=O)N3C(C(=O)N[C@@H](CCCCN)C(=O)N4Cc5ccccc5CC4C(=O)N[C@@H](CCCCN)C(=O)N[C@@H](CCCCN)C(=O)N[C@@H](CCCCN)C(=O)N[C@@H](CCCCN)C(N)=O)CC4CCCCC43)CC3CCCCC32)CC2CCCCC21 (stereo partly shown) [FKAB-1Ge] (Ac-G[ξTic][ξOic]K[ξTic][ξOic]G[ξTic][ξOic]K[ξTic]KKKK-NH2) ; MIC Salmonella typhimurium = 10
